test.description: Inhibition of quorum sensing system in Pseudomonas aeruginosa PAO1 transfected with pqsA-gfp reporter assessed as decrease in GFP fluorescence expression incubated for 16 hrs by microplate reader assay
reported.endpoint: pIC50
One number for each entry, as −log10 of the molar value.

(Q) # return recorded pIC50 for entry "Cc1cc(=O)c(O)c(CNCc2cn(-c3ccc(Oc4ccccc4)cc3)nn2)n1C"
(A) 5.43

====

test.description: Binding affinity to recombinant PqsR LBD (94 to 332 residues) (unknown origin) expressed in Escherichia coli BL21 (DE3) assessed as dissociation constant by isothermal titration calorimetry
reported.endpoint: Kd
Mention the unit after the number when you answer.

(Q) Fill in reported Kd for this entry: "Cc1cc(=O)c(O)c(CNCc2cn(-c3ccc(Oc4ccccc4)cc3)nn2)n1C"
(A) 1100 nM

====

test.description: Inhibition of quorum sensing system in Pseudomonas aeruginosa PAO1 assessed as inhibition of pyocyanin production at 10 uM incubated for 24 hrs by optical density based analysis relative to control
Kindly state inhibition for each of the entries shown.

Cn1cc(O)c(=O)cc1CNCc1cn(-c2ccc(Oc3ccccc3)cc2)nn1 | 58.3%
Cc1cc(=O)c(O)c(CNCc2cn(-c3ccccc3C(F)(F)F)nn2)n1C | 49%
Cc1cc(=O)c(O)c(CNCc2cn(-c3ccccc3OC(F)(F)F)nn2)n1C | 50.1%
Cc1cc(=O)c(O)c(CNCc2cn(-c3ccc(C(F)(F)F)cc3)nn2)n1C | 60.1%

The record that follows has no inhibition shown yet.
(Q) Report inhibition for "CCCCCCCCCn1cc(CNCc2c(O)c(=O)cc(C)n2C)nn1"
(A) 51.2%
